# target under test: Glutamate NMDA receptor
# protocol: Displacement of [3H]TCP from tissue homogenate preparation of whole rat brain minus cerebellum

- compound: "CC[C@@]1(c2ccccc2)OC[C@@H]([C@H]2CCCCN2)O1"
  readout units: "µM"
  Ki: 2.3
- compound: "CC[C@@]1(c2ccccc2)OC[C@H]([C@@H]2CCCCN2)O1"
  readout units: "µM"
  Ki: 3.7
- compound: "CC[C@@]1(c2ccccc2)OC[C@H]([C@H]2CCCCN2)O1.CC[C@]1(c2ccccc2)OC[C@H]([C@H]2CCCCN2)O1"
  readout units: "µM"
  Ki: 38
- compound: "CC[C@@]1(c2ccccc2)OC[C@@H]([C@@H]2CCCCN2)O1.CC[C@]1(c2ccccc2)OC[C@@H]([C@@H]2CCCCN2)O1"
  readout units: "µM"
  Ki: 40
- compound: "CC[C@]1(c2ccccc2)OC[C@H]([C@@H]2CCCCN2)O1 [ETOXADROL]"
  readout units: "µM"
  Ki: 0.107
